target: full-length beta-Catenin (Uniprot ID P35222) (Homo sapiens (Human)) (UniProt P35222); test: fluorescence polarization competition; full-length beta-catenin with 5FAM-TCF4(10-53) probe as competitor
pIC50: −log10 of the molar value. Starred links: 1 amine or outer side, 2 acyl side, 3 side chain; linkers in the order of their positions; H or OH if unused. Positions of bridges follow the written chain, without caps; N, C: chain ends. Non-standard residues stand in square brackets, D forms with d. Primed or numbered codes have the meaning given here. *: point of attachment. B5(4) = 2,2-bis(4-pentenyl)glycine = 2-amino-2-(pent-4-en-1-yl)hept-6-enoic acid (stitching residue), C=CCCCC(CCCC=C)(N[*:1])C(=O)[*:2]; B5(5) = 2,2-bis(4-pentenyl)glycine, 2-amino-2-(pent-4-en-1-yl)hept-6-enoic acid (stitching residue), C=CCCCC(CCCC=C)(N[*:1])C(=O)[*:2]; TfeGA = (S)-2-amino-3-((carboxymethyl)(2,2,2-trifluoroethyl)amino)propanoic acid, O=C([C@H](CN(CC(=O)[*:3])CC(F)(F)F)N[*:1])[*:2]; PyrS2 = (S)-3-amino-1-((pent-4-en-1-yloxy)carbonyl)pyrrolidine-3-carboxylic acid, C=CCCCOC(=O)N1CC[C@@](N[*:1])(C(=O)[*:2])C1; B5(7) = 2-amino-2-(pent-4-en-1-yl)hept-6-enoic acid, two olefinic side chains, C=CCCCC(CCCC=C)(N[*:1])C(=O)[*:2]; Bta = N[C@@H](Cc1csc2ccccc12)C(=O)O; αAllylPro = C=CC[C@@]1(C(=O)O)CCCN1; tBuAla = CC(C)(C)C[C@H](N)C(=O)O; 3Thi = N[C@@H](Cc1ccsc1)C(=O)O; Cha = N[C@@H](CC1CCCCC1)C(=O)O; Cit = NC(=O)NCCC[C@H](N)C(=O)O; S8 = C=CCCCCCC[C@](C)(N)C(=O)O; Dab = NCC[C@H](N)C(=O)O; Dap = NC[C@H](N)C(=O)O; Acryloyl = C=CC(=O)*
Label T when pIC50 is at or above 6; otherwise label F.

| Binder | Group |
| --- | --- |
| Ac-[αAllylPro]D[Cha][B5(4)]DEAAFN[S8]F[Bta]Q-NH2 (staple 1-4, 4-11; also: earlier eluting HPLC peak (staple isomer)) [I-619] | T |
| Ac-[αAllylPro]D[tBuAla][B5(7)]DDAAFQ[PyrS2][3Thi][Bta]Q-NH2 (staple 1-4, 4-11) [I-763] | T |
| Ac-[αAllylPro]D[tBuAla][B5(7)]DDAAFQ[PyrS2][3Thi][Bta]H-NH2 (staple 1-4, 4-11) [I-772] | T |
| Ac-[αAllylPro]DI[B5(4)]DDAAFQ[S8][Dap](Acryloyl)[Bta]Q-NH2 (staple 1-4, 4-11; also: later eluting HPLC peak (staple isomer)) [I-484] | F |
| Ac-[αAllylPro]DI[B5(5)]D[Cit]AAFQ[S8]F[Bta]Q-NH2 (staple 1-4, 4-11) [I-605] | T |
| Ac-[αAllylPro]D[tBuAla][B5(7)]D[TfeGA]AAFN[PyrS2][3Thi][Bta]H-NH2 (staple 1-4, 4-11) [I-769] | T |
| Ac-[αAllylPro]DI[B5(4)]DDAAFQ[S8][Dap](Acryloyl)[Bta]Q-NH2 (staple 1-4, 4-11; also: earlier eluting HPLC peak (staple isomer)) [I-483] | F |

Moving on to another binder below.
Exam item: Check if pIC50 >= 6 (inclusive). Item: Ac-[αAllylPro]DI[B5(4)]DDAAFQ[S8]F[Bta][Dab]-NH2 (staple 1-4, 4-11) [I-482]
Marked response: T

Source: patent US20240116985A1
